Each item that follows carries a reported melting point.

{"testSmiles": "CC(F)(F)CNC(=O)c1cc(-c2ccc3nc(NC(=O)C4CC4)cn3c2)cs1", "melting point": "117 to 119 °C"}

Enquiry: For the compound `O=C(NCC(F)(F)F)c1nc(-c2ccc3nc(NC(=O)C4CC4)cn3c2)cs1` , give its measured melting point value.
Return: 279 to 282 °C

Enquiry: For the compound `Cn1nc(-c2ccc3nc(NC(=O)C4CC4)cn3c2)cc1C(=O)NCC(F)(F)F` , give its measured melting point value.
Return: 251 to 255 °C

====

molecular target: TBK1 (Homo sapiens, UniProt Q9UHD2); construct: host or cells: RA1-ISRE beta-lactamase reporter cells; test: Inhibition of TBK1 in Cells (TLR3 driven ISRE β-lactamase reporter assay); assay type: cell-based; conditions: poly IC-LMW stimulation 16 hrs; -log(EC50), EC50 molar; read-out: Inhibition of TBK1 in cells pEC50 (EC) (converted)
measurementName: EC50 (nM)
Expressed in nM, but write only the number.

Enquiry: GET EC50 where system = TBK1 (Homo sapiens, UniProt Q9UHD2) and item = O=C(NCC(F)F)c1cc(-c2cn3cc(NC(=O)C4CC4)nc3cn2)cs1 [Example 19]
Return: 407

====

Molecular target: Full length human TBK1 (Homo sapiens, UniProt Q9UHD2)
Construct: Full length human TBK1 with an N-terminal His-tag; His-tag (N); made in house; host or cells: Sf9 insect cells (baculovirus, pFastBac1)
Sequence (Q9UHD2 1-729): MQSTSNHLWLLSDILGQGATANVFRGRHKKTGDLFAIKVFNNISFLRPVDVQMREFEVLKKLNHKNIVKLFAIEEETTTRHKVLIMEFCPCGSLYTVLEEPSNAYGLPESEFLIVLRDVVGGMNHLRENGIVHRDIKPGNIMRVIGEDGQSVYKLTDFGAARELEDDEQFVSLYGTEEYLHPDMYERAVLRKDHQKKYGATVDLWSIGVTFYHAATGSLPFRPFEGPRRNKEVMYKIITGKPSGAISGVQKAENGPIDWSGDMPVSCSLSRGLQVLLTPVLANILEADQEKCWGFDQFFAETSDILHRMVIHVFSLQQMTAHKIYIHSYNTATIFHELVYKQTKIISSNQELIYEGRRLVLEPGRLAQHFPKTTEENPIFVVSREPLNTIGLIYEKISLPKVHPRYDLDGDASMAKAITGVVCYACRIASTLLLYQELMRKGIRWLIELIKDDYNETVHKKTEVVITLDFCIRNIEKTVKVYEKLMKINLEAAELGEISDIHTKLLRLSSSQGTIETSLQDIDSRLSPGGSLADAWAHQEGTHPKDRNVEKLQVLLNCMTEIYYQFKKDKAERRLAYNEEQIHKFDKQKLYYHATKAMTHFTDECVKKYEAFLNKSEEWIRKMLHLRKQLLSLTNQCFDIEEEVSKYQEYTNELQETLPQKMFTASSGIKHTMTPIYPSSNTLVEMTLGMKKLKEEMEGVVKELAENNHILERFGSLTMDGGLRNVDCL
Experiment: Inhibition of TBK1 Enzyme (Caliper microfluidic assay)
Format: biochemical
Settings: 25 μM ATP, 60 min at RT; -log(IC50), IC50 molar; read-out: TBK1 Inhibition (pIC50) (converted)
Binarize IC50 at 0.01 µM; below is YES, at or above is NO.

{"compound": "CN(CC(F)(F)F)C(=O)c1cc(-c2ccc3nc(NC(=O)C4CC4)cn3c2)n[nH]1 [Example 106]", "category": "NO"}

Enquiry: Strictly below 0.01 µM: is that where IC50 of O=C(NCC(F)F)c1cc(-c2ccc3nc(NC(=O)C4CC4)cn3c2)cs1 [Example 55] sits?
Return: YES

Enquiry: Strictly below 0.01 µM: is that where IC50 of O=C(N[C@H]1CCOC1)c1cc(-c2ccc3nc(NC(=O)C4CC4)cn3c2)[nH]n1 [Example 53] sits?
Return: NO

Enquiry: Strictly below 0.01 µM: is that where IC50 of COC1CN(C(=O)c2nc(-c3ccc4nc(NC(=O)C5CC5)cn4c3)cs2)C1 [Example 101] sits?
Return: NO

Reference for the values: patent US9598424B2
